Ref: patent EP4745156A1

The following binders are shown together with reported kon values.
- Target entity: His-tagged canine IL-31 (interleukin 31) recombinant protein (canine)
- Assay name: BLI (Gator), biotinylated antibody on streptavidin probe, canine IL-31 as analyte
Provide the reading as a plain figure in M⁻¹ s⁻¹.

Use these answered entries as a reference point.
// 6465-H2K3-canIgGB (antibody, V domains shown) VH: EVQLVESGGDLVKPGGSLRLSCVASGYSFTNYYLYWVRQAPGKGLQWLGELNPRNGGTNLNAKFKTRFTISVDKAKNTAYLQMNSLRAEDTAVYYCTRGGTTVVVRDVMDFWGQGTLVTVSS VL: DIVMTQTPLSLSVSPGEPASISCRASESVDSYGNSFMHWYRQKPGQSPQLLIYRASNLESGVPDRFSGSGSGTDFTLRISRVEADDAGVYYCQQSNEDPYTFGQGTKLEIKR : kon value = 201000

Entry 6465-H2K2-canIgGB (antibody, V domains shown) VH: EVQLVESGGDLVKPGGSLRLSCVASGYSFTNYYLYWVRQAPGKGLQWLGELNPRNGGTNLNAKFKTRFTISVDKAKNTAYLQMNSLRAEDTAVYYCTRGGTTVVVRDVMDFWGQGTLVTVSS VL: DIVLTQTPLSLSVSPGEPASISCRASESVDSYGNSFMHWYRQKPGQSPQLLIYRASNLESGVPDRFSGSGSRTDFTLRISRVEADDAGVYYCQQSNEDPYTFGQGTKLEIKR , kon reported as 93200

# kon of B2-H3K2-canIgGB (antibody, V domains shown) VH: EVQLVESGGDLVKPGGSLRLSCVASGFTFSDAWMDWVRQAPGKGLQWVAEIRSRAESHATYYAESVKGRFTISRDDAKNTVYLQMNSLRAEDTAVYYCTPASTMITTGWFAYWGQGTLVTVSS VL: DIVMTQTPLSLSVSPGETASISCRASQNISVYLHWYRQKPGQSPQVLIKYVSQSISGVPDRFSGSGSGSDFTLRISRVEADDTGVYYCQNGHSFPYTFGQGTKLEIKR = 107000

The binder identified as 7475-H2K3-canIgGB (antibody, V domains shown) VH: EVQLVESGGDLVKPGGSLRLSCVASGFTFSSYAMSWIRQAPGKGLQWVAYISNGGDYIFYADTVKGRFTISRDNAKNTLYLQMNSLRAEDTAVYYCTRRGHYNTSSYWYFDVWGQGTLVTVSS VL: EIVMTQSPASLSLSQEEKVTITCKASENVGTYVSWYQQKPGQAPKLLIYGASNRYTGVPSRFSGSGSGTDFSFTISSLEPEDVAVYYCGQSYSYPPTFGAGTKVELKR registered its kon at 162000

New cases:
// kon lookup, binder = 6465-H2K1-canIgGB (antibody, V domains shown) VH: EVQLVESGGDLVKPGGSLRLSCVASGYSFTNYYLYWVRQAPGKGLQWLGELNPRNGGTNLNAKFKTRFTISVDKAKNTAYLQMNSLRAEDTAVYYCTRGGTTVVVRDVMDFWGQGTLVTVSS VL: EIVLTQTPLSLAVTPGELATISCRASESVDSYGNSFMHWYLQKPGQTPRLLIYRASNLESGVSDRFSGSGSRTDFTLKISRVEAEDVGVYYCQQSNEDPYTFGQGTKLEIKR , result: 508000
